# Tested on: SK-MEL-28 melanoma
# EXPERIMENT DESCRIPTION: NCI-60 one-dose screen, 48 h (100 = growth as untreated, 0 = no growth, -100 = all killed)
# SETUP CONDITIONS: 10 µM unless noted
This is part of a sample that, as a whole, favours compounds with a hit. Of some 83,000 tested, about 20% had one in any assay.
Listed here are compounds together with their documented growth.
QUANTITY MEASURED: growth (%)

> print(dat)
                              smiles.string              system  quantity.unit  numeric.readout
1  CCCCc1ccc(Nc2ccc(Nc3ccc(CCCC)cc3S(=O)(=O)O)c3c2C(=O)c2ccccc2C3=O)c(S(=O)(=O)O)c1  SK-MEL-28 melanoma              %              108
2  C[C@H](NC(=O)[C@@H]1CSSC[C@@H](NC(=O)c2nc3ccccc3cc2O)C(=O)NCC(=O)N1C)c1ccccc1  SK-MEL-28 melanoma              %             33.9
3            S=C(Cc1ccc2c(c1)CCCC2)N1CCOCC1  SK-MEL-28 melanoma              %              102
4  COc1cc(-c2nc(N3CCN(C)CC3)c3ccccc3n2)cc(OC)c1OC  SK-MEL-28 melanoma              %             59.5
5  Cn1c(I)c(C#C[Si](C)(C)C)c(=O)n(C(=O)c2ccccc2)c1=O  SK-MEL-28 melanoma              %            -65.6
